Test system: NCI-H226 lung
Experiment: NCI tumour cell line growth inhibition, 48 h; in the data active = GI50 below about 0.43 µM; inactive = the rest
Outcomes: true (1) for active, false (0) for inactive

Molecule: C[C@@H]1CC[C@H]2C(COCCOCC3=C(C(F)(F)F)O[C@@H]4O[C@@]5(C)CC[C@H]6[C@H](C)CC[C@@H]3[C@@]46OO5)=C(C(F)(F)F)O[C@@H]3O[C@@]4(C)CC[C@@H]1[C@]32OO4
Assay Target: NCI-H226 lung
Discrete Label: true (1)
--
Molecule: O=C(c1ccccc1)C(CN1CCOCC1)c1ccccc1 (centres undefined)
Assay Target: NCI-H226 lung
Discrete Label: false (0)
--
Molecule: COc1ccc2cc(-c3ccoc(=O)c3-c3cc(OC)c(OC)c(OC)c3)ccc2c1
Assay Target: NCI-H226 lung
Discrete Label: false (0)
--
Molecule: COc1ccc(-c2cc(-c3ccccc3)nc(SCCCC(=O)NO)n2)cc1
Assay Target: NCI-H226 lung
Discrete Label: false (0)
--
Molecule: N#C/C(=C\c1c(-c2ccccc2)[nH]c2ccccc12)S(=O)(=O)c1ccccc1
Assay Target: NCI-H226 lung
Discrete Label: false (0)
--
Molecule: O=C(C1CCCCC1)[C@@H]1[C@]2(C(=O)NC3CCCCC32)[C@@H]2CCCN2[C@@]12C(=O)NC1CCC(Cl)CC12 (some centres undefined)
Assay Target: NCI-H226 lung
Discrete Label: false (0)
--
Molecule: N#Cc1c(N/N=C/c2c(Cl)cccc2Cl)nc(N)nc1N1CCOCC1
Assay Target: NCI-H226 lung
Discrete Label: false (0)
--
Molecule: COc1ccc(-c2n[nH]nc2-c2cc(OC)c3c(c2OC)OCO3)cc1
Assay Target: NCI-H226 lung
Discrete Label: false (0)
--
Molecule: C[C@]12CC[C@H]3[C@@H](CCC4=CC(=O)CC[C@@H]43)[C@@H]1CC[C@@H]2OC(=O)CCc1ccccc1
Assay Target: NCI-H226 lung
Discrete Label: false (0)

###

Test system: T-47D breast
Test: NCI tumour cell line growth inhibition, 48 h
Measured Endpoint: TGI

Compound: COc1ccc2cc(-c3ccoc(=O)c3-c3cc(OC)c(OC)c(OC)c3)ccc2c1
Observed: > 100 µM

Compound: NCCCN(CCCCN(CCCN)Cc1ccc2ccccc2c1)Cc1ccc2ccccc2c1
Observed: 5.03 µM

Compound: CN(C)c1ccc(N=Nc2ccc3nc[nH]c3c2)cc1
Observed: > 100 µM

Compound: CN1CCCCC1CCN1CCCCC1 (centres undefined)
Observed: > 100 µM

Compound: O=c1[nH]c2ccccc2nc1-c1c[nH]c2ccccc12
Observed: > 100 µM

Compound: COc1cccc(NC(=O)c2sc3nc4c(cc3c2N)CN(Cc2ccccc2)CC4)c1
Observed: 47.3 µM

Compound: COc1nc2c(c(=O)n1C)N(C(C)=O)C1C(N2)OCC(OC(C)=O)C1OC(C)=O (centres undefined)
Observed: > 10 µM

Compound: O=C(NCCCCCCCCNC(=O)c1cc(-c2ccccc2)nc2ccccc12)c1cc(-c2ccccc2)nc2ccccc12
Observed: > 100 µM

Compound: CC(=O)OC1C(O)COC(O[C@H]2CC[C@]34C[C@]35CC[C@]3(C)C([C@@]6(C)CC[C@@H](C(C)(C)O)O6)[C@@H](O)C[C@@]3(C)C5C[C@H](OC3OCC(O)C(O)C3O)[C@H]4C2(C)C)C1OC1OCC(O)C(O)C1O (some centres undefined)
Observed: > 100 µM

Compound: CCCCCCCCCCCCCCCCCC(=O)OCC(COC1OC(COP(=O)(O)O)C(O)C(O)C1O)OC(=O)CCCCCCCCCCCCCCCCC (centres undefined)
Observed: 28.9 µM

Compound: O=C1c2ccccc2-c2c1c1ccc([N+](=O)[O-])cc1c(=O)n2CCCBr
Observed: > 100 µM

Compound: O=C(NCc1cccnc1)NCc1cccnc1
Observed: > 100 µM

Compound: O=c1oc2ccccc2cc1/C=N/N1C(=S)N(c2ccccc2)C(=Nc2ccccc2)C1=Nc1ccccc1
Observed: > 100 µM

Compound: COC(=O)Cn1c2c(c3c(O)cccc31)C(=O)c1ccccc1-2
Observed: > 100 µM

Compound: Cc1cc2c3ccc(C)[n+](C)c3ccc2n1C
Observed: 49 µM

Compound: Cc1ccc(S(=O)(=O)NCCSCCNS(=O)(=O)c2ccc(C)cc2)cc1
Observed: > 100 µM

Compound: O=C(N/N=C/c1ccc2c(c1)CCC2)c1ccccc1O
Observed: > 100 µM

Compound: CC1=C2C(=O)c3ccccc3C(=O)[C@H]2[C@H]2CCO[C@H]2O1
Observed: > 100 µM

Compound: CC(C)[C@@H]1NC(=O)[C@H]2N=C(O[C@@H]2C)[C@@H]2CCCN2C(=O)[C@H](Cc2ccccc2)NC(=O)[C@@H]2CSC(=N2)[C@@H](Cc2ccccc2)NC(=O)[C@@H]2CSC1=N2
Observed: > 50 µM

Compound: CC1(C)CS(=O)(=O)CC(C)(C)C(=N/N)/C1=N\N
Observed: > 100 µM

Compound: CC(=O)C(O)N1C(=O)C=CC1=O (centres undefined)
Observed: > 25 µM

Compound: C#CCOCC12C=CC(O1)C1C(=O)N(C)C(=O)C12 (centres undefined)
Observed: > 100 µM

Compound: COc1ccc(C(OCC2OC(n3ccc(NC(=O)c4ccccc4)nc3=O)C(O)C2O)(c2ccccc2)c2ccccc2)cc1 (centres undefined)
Observed: 9.42 µM

Compound: COc1ccc(-c2c3c(nc4nc(SCCc5ccccc5)nc(N)c24)CCCC3)cc1OC
Observed: > 100 µM

Compound: CC(=O)OCC(OC(C)=O)C(OC(C)=O)C(C=NN(C(C)=O)S(=O)(=O)c1ccc(/C=C2\NC(=O)NC2=O)cc1)OC(C)=O (centres undefined)
Observed: > 100 µM

Compound: Cc1cc(N/N=C/c2nc(-c3ccc(Br)cc3)oc2C)c2cc(Cl)ccc2n1
Observed: > 100 µM

Compound: O=C1C2CC=CCC2C(=O)N1n1c(-c2ccccc2)n[nH]c1=O (centres undefined)
Observed: > 100 µM

Compound: COc1cc2nc(N3CCCC3)nc(NCC3CCCCC3)c2cc1OC
Observed: 3.51 µM

Compound: CC1C(c2ccccc2)OP(=O)(OC(C#N)c2ccccc2)N1C (centres undefined)
Observed: > 100 µM

Compound: C[C@@H]1CC[C@H]2C(COCCOCC3=C(C(F)(F)F)O[C@@H]4O[C@@]5(C)CC[C@H]6[C@H](C)CC[C@@H]3[C@@]46OO5)=C(C(F)(F)F)O[C@@H]3O[C@@]4(C)CC[C@@H]1[C@]32OO4
Observed: > 94.6 µM

Compound: CN(/N=C(\C(=O)O)c1ccccc1)C1=NCCCN1
Observed: > 100 µM

Compound: CCCn1c(C)nc2c1C(=O)c1ccccc1C2=O
Observed: > 100 µM

Compound: CC(CN1CCN(CCOCCO)CC1)CN1c2ccccc2Sc2ccc(Cl)cc21 (centres undefined)
Observed: 22.6 µM

Compound: COc1c2c(cc3oc(C)cc(=O)c13)OC(=N)C(C(N)=O)C2CC(=O)c1ccc(N)cc1 (centres undefined)
Observed: > 100 µM

Compound: N#CC(C#N)=Cc1ccc2c(c1)OC(Cl)O2 (centres undefined)
Observed: > 100 µM

Compound: COC(=O)c1c2n(c3ccccc13)C[C@H]1OC(C)(C)O[C@@H]21
Observed: > 100 µM

Compound: O=C(NNC1=NCCN1)c1ccco1
Observed: > 100 µM

Compound: CCOC(=O)/C(Cl)=C(\C)Nc1nc2c(ccc3ccccc32)s1
Observed: 43.6 µM

Compound: CCCN(C(=O)c1c(Cl)nnc(Cl)c1C(=O)c1cc(Cl)nnc1Cl)c1cc(Cl)nnc1Cl
Observed: 23 µM

###

Tested on: HCT-15 colon
Assay: NCI tumour cell line growth inhibition, 48 h

Compound: O=C(/C(=C/c1ccc([N+](=O)[O-])cc1)c1ccccc1)c1ccccc1
TGI: > 100 µM
--
Compound: CC(=O)OC1C(O)COC(O[C@H]2CC[C@]34C[C@]35CC[C@]3(C)C([C@@]6(C)CC[C@@H](C(C)(C)O)O6)[C@@H](O)C[C@@]3(C)C5C[C@H](OC3OCC(O)C(O)C3O)[C@H]4C2(C)C)C1OC1OCC(O)C(O)C1O (stereo partly drawn)
TGI: > 100 µM
--
Compound: CCOC(=O)C1=C(O)C(=O)c2ccsc2C1=O
TGI: > 100 µM

###

Tested on: TK-10 renal
Test: NCI tumour cell line growth inhibition, 48 h
Reported GI50 by item:
Measured Endpoint: GI50

Structure Smiles: Cc1ccc(NC(=O)/C=C/c2ccccc2)c(C(N)=O)c1
Observed: 17.1 µM
//
Structure Smiles: CN1CCN(Cc2ccc(NC(=O)c3cncc(C#Cc4cnc(N)c5ccncc45)c3)cc2C(F)(F)F)CC1
Observed: 1.56 µM
//
Structure Smiles: c1ccc2c(c1)c(NCCCCN1CCCCC1)cc1c3ccccc3c(NCCCCN3CCCCC3)cc21
Observed: 22.1 µM
